system: A2058; assay: Cytotoxicity against human A2058 cells; type: functional, cell-based
Some compounds, each annotated with its measured IC50.

Before answering, review these 3 worked examples.
>>> result("COc1cc(C=O)ccc1Oc1cc(C=O)cc(OC)c1OC=O")
"61.4 µM"
>>> result("CCCc1ccc(Oc2cc(CCC)cc(OC)c2Oc2ccccc2)c(OC)c1")
"> 100 µM"
>>> result("COc1cc(CC(C)=O)ccc1Oc1cc(CC(C)=O)cc(OC)c1OCC(C)=O")
"> 100 µM"

Next compound, IC50 to be filled in.
IC50 value, target or system A2058, for `CCCc1ccc(Oc2cc(CCC)cc(OC)c2OC)c(OC)c1` : > 100 µM
